# System: MDA-MB-468
# method_notes: NCI-60 SRB screen
# run_conditions: Homo sapiens, MDA-MB-468, 48 h, read-out: LC50, MDA-MB-468, 48 h
Listing of recorded CC50 by entry.
Output spec: scalar in µM, unitless text.

Check out these entries, answers already filled in.
>  <compound>
CCCC(C(=O)O)N1C(=O)/C(=C/C=C/c2ccc([N+](=O)[O-])o2)SC1=S (stereo not drawn) [4b]

>  <reported>
5.92

$$$$
>  <compound>
O=C(O)CCCCCN1C(=O)/C(=C/C=C/c2ccc([N+](=O)[O-])o2)SC1=S [14b]

>  <reported>
5.27

$$$$
>  <compound>
O=C(O)C(c1ccccc1)N1C(=O)/C(=C/C=C/c2ccc([N+](=O)[O-])o2)SC1=S (stereo not drawn) [9b]

>  <reported>
45.6

$$$$
>  <compound>
CCCCC(C(=O)O)N1C(=O)/C(=C/C=C/c2ccc([N+](=O)[O-])o2)SC1=S (stereo not drawn) [6b]

>  <reported>
6.09

$$$$
>  <compound>
CC(C)C(C(=O)O)N1C(=O)/C(=C/C=C/c2ccc([N+](=O)[O-])o2)SC1=S (stereo not drawn) [5b]

>  <reported>
6.16

$$$$

Query: Provide MDA-MB-468 CC50 reading for O=C(O)CCN1C(=O)/C(=C/C=C/c2ccc([N+](=O)[O-])o2)SC1=S [12b] .
Result: 5.71

From: paper PMC12655351
